Source: the supplement of paper PMC9170038

- Test system: MS2 coat protein
- Test details: apparent KD of MS2 coat protein; designed switch direction (-1 OFF switch, 1 ON switch): -1; higher = weaker reporter binding
- Particulars: input ligand: none
Listed here: items and their measured apparent KD of MS2 coat protein.
State just the number; it will be interpreted in µM.

Check out these entries, answers already filled in.
| Macromolecule sequence | Property label | Units of measure | Observed measurement |
| --- | --- | --- | --- |
| GCUCGUUUUGUCAGGAUAUUGAGUCAGCUUAAGCUCGAGAAGGGACAUGAGGAUCACCCAUGUACCGCACAAUU [BmEX4 B.29] (Eterna round: R97, puzzle: Brourd's mod of Exclusion 4) | apparent KD of MS2 coat protein | µM | 0.0111 |
| GCAGGUCAAGGAUAUACAUGAGGAUCACCCAUGUGAUUAGCAGUCCUCGGACUGCAAUGUAGAAGGUGACCUGC [E3/2-C2] (Eterna round: R97, puzzle: Exclusion 3) | apparent KD of MS2 coat protein | µM | 0.329 |
| ACAUGAGGAUCACCCAUGUAAACAUAAUGGCUCAUGUAGAGUCAGGAUAUGCGUGGCGAACAAUCGCAGAAGGGACAAGACUGG [Deportation 28 - Jieux - Exclusion NG 3] (Eterna round: R96, puzzle: Exclusion NG 3) | apparent KD of MS2 coat protein | µM | 0.0278 |
| UACCCGUGAGGAUAUAGAGUCCUACACAUGAGGAUCACCCAUGUCAGCCUUAUCGUGGAUCUAGAAGGCAUAAACG [Eternabot (L1) Solution 88] (Eterna round: R97, puzzle: Exclusion 5) | apparent KD of MS2 coat protein | µM | 0.183 |

## Task Give apparent KD of MS2 coat protein; test system MS2 coat protein; sequence GAAAAGGUAGAGGAUAUUUCAGGUCAAAGCUGCAAAGAAGGCUGCACAUGAGGAUCACCCAUGUGGUCUUAAAA [Mod of Quesina 7 - Jieux - Exclusion 6] (Eterna round: R97, puzzle: Exclusion 6)
## Result 0.0257

## Task Give apparent KD of MS2 coat protein; test system MS2 coat protein; sequence AGAUGCUCGAGUCAACAUGAGGAUCACCCAUGUACAGUUAAUGAGGAUAUCUGAGACAAAUAGUAGGAGAAGGCGUGAACAUGA [Ex NG3 #12] (Eterna round: R96, puzzle: Exclusion NG 3)
## Result 0.0396

## Task Give apparent KD of MS2 coat protein; test system MS2 coat protein; sequence UUUUACAGGCUUAGAUCCUACAUGAGGAUCACCCAUGUGGUGGCGUGUCGUGAGACAUGCCACUAAGCUCGUCUUGU [JL TOV1 3.73] (Eterna round: R97, puzzle: Sensor, turn-off variant 1)
## Result 0.103

## Task Give apparent KD of MS2 coat protein; test system MS2 coat protein; sequence GCCAAUGUGGAGGAUAUCGACUUCGAAAGAAGUCGAGAAGGCCACACAUGAGGAUCACCCAUGUGAUGCCAGGC [Omei Ex6 H10] (Eterna round: R97, puzzle: Exclusion 6)
## Result 0.189

## Task Give apparent KD of MS2 coat protein; test system MS2 coat protein; sequence AGGCGCUAGUAGGAUAUCUGGAACGGAUUAUAAAGAGAAGGGCUGACAUGAGGAUCACCCAUGUGACCAAUGCG [Eternabot (L1) Solution 50] (Eterna round: R97, puzzle: Exclusion 6)
## Result 0.0506

## Task Give apparent KD of MS2 coat protein; test system MS2 coat protein; sequence UUUAGUUCAGGAUAUGUAGAAUUUAACAUGAGGAUCACCCAUGUAGAUCCUGAAUUAACUACAGAAGGGAACAUUU [Exclusion 5: 2:a mod2] (Eterna round: R97, puzzle: Exclusion 5)
## Result 0.0152

## Task Give apparent KD of MS2 coat protein; test system MS2 coat protein; sequence GUAAUGCUGCGAGGAUAUACAUGAGGAUCACCCAUGUGGAUGUCUGAGGCUUUGCCUCAGACGAUGUAGAAGGCGCAGUAAAAU [Mat - Exclusion NG 2 - Mod of JL - D53] (Eterna round: R96, puzzle: Exclusion NG 2)
## Result 0.0283
